System: 435261-313-R-J1-PDC complex spheroid viability
ASSAY_OVERVIEW: Anticancer human tumor 435261-313-R-J1-PDC patient-derived colon adenocarcinoma cell line growth inhibition [GQUAD]
MEASUREMENT_SETUP: second compound 10 µM; first compound 0.0999 µM; stronger effect = lower value
OBSERVED_PROPERTY: viability, T/C (%)
The reply should be a number in %, with the unit left off.

INPUT: What viability, T/C appears in the records for this molecule with 435261-313-R-J1-PDC complex spheroid viability? Cn1ncnc1[C@H]1c2n[nH]c(=O)c3cc(F)cc(c23)N[C@@H]1c1ccc(F)cc1 + CN(C)c1ccc(Nc2c3ccc(NC(=O)CCN4CCCC4)cc3nc3cc(NC(=O)CCN4CCCC4)ccc23)cc1
OUTPUT: 27.4

INPUT: Missing value: viability, T/C, 435261-313-R-J1-PDC complex spheroid viability, entry Cn1ncnc1[C@H]1c2n[nH]c(=O)c3cc(F)cc(c23)N[C@@H]1c1ccc(F)cc1 + Cc1[nH]c2ccc(F)cc2c1-c1nc2c3cccnc3c3ncccc3c2[nH]1 . Fill in?
OUTPUT: 22.6

INPUT: Form entry - test system: 435261-313-R-J1-PDC complex spheroid viability; read-out: viability, T/C; molecule: Cn1ncnc1[C@H]1c2n[nH]c(=O)c3cc(F)cc(c23)N[C@@H]1c1ccc(F)cc1 + Cc1cnc(CNC(=O)c2c(=O)c3ccc(N4CCCN(C)CC4)nc3n3c2sc2ccccc23)cn1
OUTPUT: 0.18

---

Tested on: 435261-313-R-J1-PDC complex spheroid viability
ASSAY_OVERVIEW: Anticancer human tumor 435261-313-R-J1-PDC cell line growth inhibition [GQUAD];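 further: spheroids exposed to the agents for seven days before readout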
MEASUREMENT_SETUP: curve of first compound; second compound 1 µM
Consider the following molecules; for each one, report its IC50.

INPUT: Please give the measured IC50 for this molecule: CCc1c2c(nc3ccc(O)cc13)-c1cc3c(c(=O)n1C2)COC(=O)[C@]3(O)CC + Cc1[nH]c2ccc(F)cc2c1-c1nc2c3cccnc3c3ncccc3c2[nH]1
OUTPUT: < 0.999 nM

INPUT: For the molecule shown here, O=C(c1cc(Cc2n[nH]c(=O)c3ccccc23)ccc1F)N1CCN(C(=O)C2CC2)CC1 + Cc1cnc(CNC(=O)c2c(=O)c3ccc(N4CCCN(C)CC4)nc3n3c2sc2ccccc23)cn1 , give the reported IC50.
OUTPUT: < 31.6 nM

INPUT: // query IC50 value for entry CC[C@@]1(O)C(=O)OCc2c1cc1n(c2=O)Cc2cc3c(CN(C)C)c(O)ccc3nc2-1 + Cc1[nH]c2ccc(F)cc2c1-c1nc2c3cccnc3c3ncccc3c2[nH]1
OUTPUT: > 316 nM

INPUT: Quick check: IC50 of C=CC(=O)N1CCN(c2nc(=O)n(-c3c(C)ccnc3C(C)C)c3nc(-c4c(O)cccc4F)c(F)cc23)C(C)C1 (stereo not given) + Cc1cnc(CNC(=O)c2c(=O)c3ccc(N4CCCN(C)CC4)nc3n3c2sc2ccccc23)cn1 ?
OUTPUT: < 31.6 nM

INPUT: # query: IC50 of entry C#Cc1c(F)ccc2cc(O)cc(-c3ncc4c(N5CC6CCC(C5)N6)nc(OCC56CCCN5CC(F)C6)nc4c3F)c12 (stereo not given) + Cc1[nH]c2ccc(F)cc2c1-c1nc2c3cccnc3c3ncccc3c2[nH]1
OUTPUT: > 10000 nM

---

Please provide measured viability, T/C for the entries that follow.
Test system: 435261-313-R-J1-PDC complex spheroid viability
ASSAY_OVERVIEW: Anticancer human tumor 435261-313-R-J1-PDC cell line growth inhibition [GQUAD];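 further: spheroids exposed to the agents for seven days before readout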;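 on viability, T/C: percent of vehicle control viability with DMSO wells as 100%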
MEASUREMENT_SETUP: second compound 0.0316 µM; first compound 3.16 µM; stronger effect = lower value
Numbers only; they are read as %.

INPUT: GET /values?readout=viability, T/C&item= CC(C)n1c(=O)n(C)c2cnc3cc(F)c(-c4ccc(OCCCN5CCCCC5)nc4)cc3c21 + Cc1cnc(CNC(=O)c2c(=O)c3ccc(N4CCCN(C)CC4)nc3n3c2sc2ccccc23)cn1
OUTPUT: 61.4

INPUT: Given the entry O=c1[nH]cc(F)c(=O)[nH]1 + Cc1cnc(CNC(=O)c2c(=O)c3ccc(N4CCCN(C)CC4)nc3n3c2sc2ccccc23)cn1 , report its measured viability, T/C.
OUTPUT: 81.4

INPUT: Request the reported viability, T/C associated with C=CCn1c(=O)c2cnc(Nc3ccc(N4CCN(C)CC4)cc3)nc2n1-c1cccc(C(C)(C)O)n1 + CN(C)c1ccc(Nc2c3ccc(NC(=O)CCN4CCCC4)cc3nc3cc(NC(=O)CCN4CCCC4)ccc23)cc1
OUTPUT: 81.8
